These measurements were taken from ChEMBL document CHEMBL1148617.

# Measured on: UniProtKB P29275
# Sequence (P29275 whole entry): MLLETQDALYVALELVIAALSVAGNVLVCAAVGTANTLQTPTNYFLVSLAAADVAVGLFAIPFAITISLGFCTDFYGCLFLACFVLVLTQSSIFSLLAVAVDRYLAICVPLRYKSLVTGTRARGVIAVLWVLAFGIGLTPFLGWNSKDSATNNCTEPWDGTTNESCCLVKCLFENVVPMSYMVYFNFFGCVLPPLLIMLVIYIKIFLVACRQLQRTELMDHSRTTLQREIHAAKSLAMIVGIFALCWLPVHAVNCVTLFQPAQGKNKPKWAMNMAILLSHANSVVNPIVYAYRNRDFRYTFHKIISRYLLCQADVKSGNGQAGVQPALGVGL
pKi: −log10 of the molar value.
Recorded endpoint: pKi

CCOC(=O)COc1ccc(-c2cc3c([nH]2)c(=O)n(CC)c(=O)n3CCCOC)cc1 7.18
CCCn1c(=O)c2[nH]c(-c3ccc(N(C=O)CC(=O)Nc4ccc(Br)cc4)cc3)cc2n(CCC)c1=O 8.11
CCCn1c(=O)c2[nH]c(-c3ccc(OCC(=O)Nc4ccc(OC)cc4)cc3)cc2n(CCC)c1=O 7.92

(I) CCCn1c(=O)c2[nH]c(-c3ccc(OC(C)(C)C(=O)Nc4ccc(F)cc4)cc3)cc2n(CCC)c1=O
(II) COc1cc(OCC(=O)Nc2ccccc2)ccc1-c1cc2c([nH]1)c(=O)n(C)c(=O)n2C
(III) CCCn1c(=O)c2[nH]c(-c3ccc(OCC(=O)c4ccc(I)cc4)cc3)nc2n(CCC)c1=O
(IV) CCOC(=O)COc1ccc(-c2cc3c([nH]2)c(=O)n(C)c(=O)n3C)cc1
Sort (4 compounds) by pKi: min first. Sort and list the labels as requested.
III, IV, II, I
(III: 5.23, IV: 6.54, II: 7.16, I: 8.05)

----------
# Measured on: Adenosine receptor A2b (Homo sapiens)
# Assay notes: Displacement of [3H]DPCPX from recombinant human adenosine A2B receptor expressed in HEK293 cells at 0.01 uM
Recorded endpoint: inhibition (%)

Take a look at these entries with their results.
Compound	inhibition / %
CCCn1c(=O)c2[nH]c(-c3ccc(OC(C(=O)Nc4ccccc4)c4ccccc4)cc3)cc2n(CCC)c1=O (configuration not stated)	44
COc1cc(-c2cc3c([nH]2)c(=O)n(C)c(=O)n3C)ccc1OCC(=O)Nc1ccccc1	10

(P) CCCn1c(=O)c2[nH]c(-c3ccc(OC(CC)C(=O)Nc4ccc(F)cc4)cc3)cc2n(CCC)c1=O (configuration not stated)
(Q) CCCn1c(=O)c2[nH]c(-c3ccc(OCC(=O)Nc4ccc(Cl)cc4)cc3)c(Cl)c2n(CCC)c1=O
(R) CCCn1c(=O)c2[nH]c(-c3ccc(OCC(=O)Nc4ccc(C5=NC(C)(C)CO5)cc4)cc3)cc2n(CCC)c1=O
Sort (3 compounds) by inhibition: min first. Sort and list the labels as requested.
R, Q, P

(A) CCCn1c(=O)c2[nH]c(-c3ccc(OCC(=O)Nc4ccc(C=O)cc4)cc3)cc2n(CCC)c1=O
(B) CCCn1c(=O)c2[nH]c(-c3ccc(OCC(=O)NCc4ccncc4)cc3)cc2n(CCC)c1=O
(C) Cn1c(=O)c2[nH]c(-c3ccc(OCC(=O)NCc4ccc(Cl)cc4)cc3)cc2n(C)c1=O
Sequence the entries by inhibition, beginning with the highest number. Sort and list the labels as requested.
C, B, A
(C: 61%, B: 21%, A: 13%)
